Every entry's value here was drawn from PubChem BioAssay (Tox21).

# assay-overview: qHTS assay for small molecule disruptors of the mitochondrial membrane potential - cell viability (AID 720634); note: nearly all actives have a fitted effect of over 20% in size
# run-conditions: HepG2 viability, ATP luminescence (CellTiter-Glo), 1 h; series mostly up to 83.2 µM
Inconclusive results are not listed. Active and inactive are the calls of the source. Calls come from the whole dose curve.
Parameter call: string, one of active, inactive

Take a look at these entries with their results.
{"columns": ["chemical-structure", "assigned-label"],
 "data": [
  ["O=C1C(c2[nH]c3ccc(S(=O)(=O)O)cc3c2O)=Nc2ccc(S(=O)(=O)O)cc21", "inactive"],
  ["CCC(=O)C(=O)CC", "inactive"],
  ["Cc1ccc(C(C)C)cc2c(C)ccc1-2", "inactive"]
]}

Hey, what did the test say about O=[N+]([O-])c1ccc(O)cc1C(F)(F)F ?
active

Hey, what did the test say about Nc1ccc(C(=O)O)c(O)c1 ?
inactive

Hey, what did the test say about Cc1cccc2cccnc12 ?
inactive

Hey, what did the test say about Cc1ccc(O)c(O)c1 ?
inactive

Hey, what did the test say about O=c1c(O)c(-c2ccc(O)cc2O)oc2cc(O)cc(O)c12 ?
inactive

Hey, what did the test say about CN(C)Cc1ccccc1O ?
inactive

Hey, what did the test say about COc1cc(C)ccc1O ?
inactive

Hey, what did the test say about Sc1nc2ccccc2s1 ?
inactive

Hey, what did the test say about CC1(C)CCC[C@]2(C)[C@H]3CCO[C@]3(C)CC[C@@H]12 ?
inactive

Hey, what did the test say about OCC(F)(F)F ?
inactive

Hey, what did the test say about CCO[Si](OCC)(OCC)OCC ?
inactive

Hey, what did the test say about CC(C)=CCC1=C(O)c2ccccc2C(=O)C1=O ?
active
